assayTarget: BTK (Homo sapiens, UniProt Q06187)
Construct: endogenous in cells; host or cells: Ramos (ATCC CRL-1596)
Sequence (Q06187 whole entry): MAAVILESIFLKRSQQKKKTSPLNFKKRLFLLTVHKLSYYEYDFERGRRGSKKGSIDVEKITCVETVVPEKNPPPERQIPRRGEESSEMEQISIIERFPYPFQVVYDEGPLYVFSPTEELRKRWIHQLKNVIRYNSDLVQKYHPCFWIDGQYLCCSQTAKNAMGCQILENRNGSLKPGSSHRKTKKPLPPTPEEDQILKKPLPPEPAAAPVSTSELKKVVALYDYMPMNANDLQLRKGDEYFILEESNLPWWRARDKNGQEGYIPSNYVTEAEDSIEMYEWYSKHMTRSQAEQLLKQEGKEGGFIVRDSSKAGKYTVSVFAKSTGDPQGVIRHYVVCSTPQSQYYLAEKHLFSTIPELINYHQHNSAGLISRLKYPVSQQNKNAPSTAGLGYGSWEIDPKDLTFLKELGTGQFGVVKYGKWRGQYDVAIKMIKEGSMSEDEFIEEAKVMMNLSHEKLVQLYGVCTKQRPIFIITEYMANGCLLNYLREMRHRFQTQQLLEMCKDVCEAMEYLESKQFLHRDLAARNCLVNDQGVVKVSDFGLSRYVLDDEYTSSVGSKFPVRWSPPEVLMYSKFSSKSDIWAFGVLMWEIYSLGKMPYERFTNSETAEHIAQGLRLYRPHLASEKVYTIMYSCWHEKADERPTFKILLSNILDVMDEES
assay: Cellular BTK HTRF Assay (BTK levels in Ramos cells)
Type: cell-based
measurementParameters: Ramos cells, 50,000 cells, incubated four hours at 37° C.; BTK levels by Cisbio Total-BTK HTRF relative to DMSO-treated cells
valueType: DC50

>>> endpointvalue("C[C@H]1CN(C(=O)CCCCc2cccc3c2CN(C2CCC(=O)NC2=O)C3=O)CCN1c1ccc(Nc2cc(-c3ccnc(N4CCn5c(cc6c5CC(C)(C)C6)C4=O)c3CO)cn(C)c2=O)nc1 (some centres unmarked) [Compound 38]")
"1 to 10 nM"
>>> endpointvalue("C[C@@H]1CN(CCOCCNc2cccc3c2C(=O)N(C2CCC(=O)NC2=O)C3=O)CCN1c1ccc(Nc2cc(-c3ccnc(N4CCn5c(cc6c5CC(C)(C)C6)C4=O)c3CO)cn(C)c2=O)nc1 (some centres unmarked) [Compound 40]")
"< 1 nM"
>>> endpointvalue("Cn1cc(-c2ccnc(-n3ncc4cc(C(C)(C)C)cc(F)c4c3=O)c2CO)cc(Nc2cc3n(n2)CCN(C(=O)CCCN2CCN(c4cc5c(cc4F)C(=O)N(C4CCC(=O)NC4=O)C5=O)CC2)C3)c1=O (centres unmarked) [Compound 23]")
"1 to 10 nM"
>>> endpointvalue("Cn1cc(-c2ccnc(-n3ncc4cc(C(C)(C)C)cc(F)c4c3=O)c2CO)cc(Nc2cc3n(n2)CCN(C(=O)CN2CCN(CCc4cccc5c4CN(C4CCC(=O)NC4=O)C5=O)CC2)C3)c1=O (centres unmarked) [Compound 22]")
"10 to 1000 nM"
>>> endpointvalue("C[C@H]1CN(C(=O)[C@H]2CC[C@H](Nc3cccc4c3C(=O)N(C3CCC(=O)NC3=O)C4=O)CC2)CCN1c1ccc(Nc2cc(-c3ccnc(N4CCn5c(cc6c5CC(C)(C)C6)C4=O)c3CO)cn(C)c2=O)nc1 (some centres unmarked) [Compound 31]")
"1 to 10 nM"
